- MEASUREMENT TARGET: Isoform Bcl-X(L) of Bcl-2-like protein 1 (Bcl-xL) (Homo sapiens, UniProt Q07817)
- Sequence (Q07817 whole entry G70A, canonical isoform): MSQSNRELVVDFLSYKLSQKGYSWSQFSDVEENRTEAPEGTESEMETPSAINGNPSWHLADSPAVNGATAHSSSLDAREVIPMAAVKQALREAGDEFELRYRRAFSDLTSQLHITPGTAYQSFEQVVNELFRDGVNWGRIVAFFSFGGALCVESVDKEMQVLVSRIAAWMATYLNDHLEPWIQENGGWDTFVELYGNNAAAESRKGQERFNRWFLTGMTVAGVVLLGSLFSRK
- PROTOCOL DESCRIPTION: Bcl-XL binding to Bim peptide disruption – biochemical, multiplexed, bead flow cytometry, human Bcl-XL, dose response (AID 1322)
- SETTINGS: inactive by the depositor's call; pH 7.4; 4 °C
pEC50: −log10 of the molar value.
PROPERTY: pEC50

Worked examples, 5 compounds total:
Cc1nc2ncccn2c1-c1csc(Nc2ccccc2)n1
5.00
CSc1nnc2c3cc(C)ccc3n(Cc3ccccc3)c2n1
4.69
Cc1cc(-c2nnc3n2N=C(c2ccc(-c4ccccc4)cc2)CS3)[nH]n1
4.93
Cc1cc2n(c1)CCn1c(C)ccc1-2
4.58
NC(=O)c1sc2nc3c(c(-c4ccco4)c2c1N)CCC3
5.46

(I) Cc1cccc(C(=O)/N=c2\c(C#N)cc3c(=O)n4cccc(C)c4nc3n2Cc2ccco2)c1
(II) COc1cc(/C=C2\CC/C(=C\c3cc(OC)c(O)c(OC)c3)C2=O)cc(OC)c1O
(III) CCOC(=O)c1c(O)nc2ccc(Cl)c3c2c1-c1ccccc1C3=O
(IV) Cc1cc(OCc2cn3cccnc3n2)ccc1Cl
Q) Please put the entries in order of rising pEC50. // rank by listing labels in the order requested
A) I, IV, III, II
